The following compounds are shown together with reported pKa values.
MEASUREMENT_DESCRIPTION: Dissociation constant, pKa of the compound
Assay type: physicochemical
ATTRIBUTE_MEASURED: pKa

Oc1ccccc1Cl [2-CHLOROPHENOL] ... 9.13
Oc1c(Cl)cccc1Cl [2,6-DICHLOROPHENOL] ... 7.15

----------
ASSAYED_SYSTEM: UniProt P42226
Sequence (P42226 whole entry): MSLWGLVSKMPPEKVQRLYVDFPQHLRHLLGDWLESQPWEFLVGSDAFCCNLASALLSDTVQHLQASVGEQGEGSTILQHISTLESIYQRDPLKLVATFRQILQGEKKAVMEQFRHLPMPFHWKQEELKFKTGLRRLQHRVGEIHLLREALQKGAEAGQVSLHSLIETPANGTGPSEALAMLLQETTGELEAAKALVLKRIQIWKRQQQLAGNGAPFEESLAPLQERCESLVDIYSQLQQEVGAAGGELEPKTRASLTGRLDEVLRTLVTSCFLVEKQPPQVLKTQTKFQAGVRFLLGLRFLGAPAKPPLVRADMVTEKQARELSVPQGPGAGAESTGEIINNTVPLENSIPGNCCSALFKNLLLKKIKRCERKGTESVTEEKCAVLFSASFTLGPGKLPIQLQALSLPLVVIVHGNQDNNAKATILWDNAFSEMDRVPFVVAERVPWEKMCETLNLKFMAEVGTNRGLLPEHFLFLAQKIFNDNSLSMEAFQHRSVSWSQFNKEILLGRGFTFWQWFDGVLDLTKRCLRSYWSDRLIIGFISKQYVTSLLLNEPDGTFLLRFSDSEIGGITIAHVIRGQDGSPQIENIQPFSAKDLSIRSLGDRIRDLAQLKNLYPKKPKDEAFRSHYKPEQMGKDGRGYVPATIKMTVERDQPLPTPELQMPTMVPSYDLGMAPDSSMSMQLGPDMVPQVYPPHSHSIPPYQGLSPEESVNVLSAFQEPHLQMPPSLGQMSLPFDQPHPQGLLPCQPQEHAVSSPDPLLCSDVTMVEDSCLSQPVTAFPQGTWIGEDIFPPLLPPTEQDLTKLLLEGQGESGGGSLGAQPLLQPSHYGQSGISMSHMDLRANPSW
MEASUREMENT_DESCRIPTION: Inhibition of STAT6 activation in FW4 reporter cells
pIC50: −log10 of the molar value.
The following compounds are shown together with reported pIC50 values.
ATTRIBUTE_MEASURED: pIC50

CS(=O)(=O)c1ccccc1CNc1nc(Nc2ccc(N3CCOCC3)cc2)ncc1C(N)=O ... 5.70
NC(=O)c1cnc(Nc2ccc(N3CCOCC3)cc2)nc1NCc1ccccc1Cl ... 8.10
Cc1ccccc1CNc1nc(Nc2ccc(N3CCOCC3)cc2)ncc1C(N)=O ... 7.96
CSc1ccccc1CNc1nc(Nc2ccc(N3CCOCC3)cc2)ncc1C(N)=O ... 7.64
NC(=O)c1cnc(Nc2ccc(N3CCOCC3)cc2)nc1NCc1cc(F)cc(F)c1F ... 8.74
NC(=O)c1cnc(Nc2ccc(N3CCC(O)C3)cc2)nc1NCc1ccccc1 (stereo unspecified) ... 7.01
NC(=O)c1cnc(Nc2ccc(N3CCOCC3)cc2)nc1NCc1cccc(Cl)c1 ... 7.44
NC(=O)c1cnc(Nc2ccc(CCO)cc2)nc1NCc1ccccc1 ... 7.02
NC(=O)c1cnc(Nc2ccc(N3CCOCC3)cc2)nc1NCc1cccc(C(F)(F)F)c1 ... 6.89
COc1ccccc1CNc1nc(Nc2ccc(N3CCOCC3)cc2)ncc1C(N)=O ... 8.09
NC(=O)c1cnc(Nc2ccc(N3CCOCC3)cc2)nc1NCc1cc(F)ccc1F ... 8.80
NC(=O)c1cnc(NCCc2cc(Cl)c(O)c(Cl)c2)nc1NCc1ccccc1 ... 7.21
CN1CCC(c2ccc(Nc3ncc(C(N)=O)c(NCc4ccccc4)n3)cc2)CC1 ... 7.77
NC(=O)c1cnc(Nc2ccc(N3CCOCC3)cc2)nc1NCc1ccccc1O ... 7.66
CC(=O)Nc1ccccc1CNc1nc(Nc2ccc(N3CCOCC3)cc2)ncc1C(N)=O ... 5.28
COc1cccc(CNc2nc(Nc3ccc(N4CCOCC4)cc3)ncc2C(N)=O)c1 ... 7.60
NC(=O)c1cnc(Nc2ccc(N3CCOCC3)cc2)nc1NCc1ccccc1C(F)(F)F ... 7.60
CN1CCN(c2ccc(Nc3ncc(C(N)=O)c(NCc4ccccc4)n3)cc2)CC1 ... 8.21
NC(=O)c1cnc(Nc2ccc(N3CCOCC3)cc2)nc1NCc1ccc(F)cc1F ... 6.51
NC(=O)c1cnc(Nc2ccc(N3CCOCC3)cc2)nc1NCc1ccccc1F ... 8.85
NC(=O)c1cnc(Nc2ccc(N3CCOCC3)cc2)nc1NCc1cccc(F)c1 ... 8.74
